assay: MTT cell viability assay, compounds at 5, 1 and 0.2 μM, 48 hours; format: cell-based; details: human, A549 tumor cells, 1 μM
Measured viability at 48 h, 1 µM, listed per entry.
metricName: viability at 48 h, 1 µM

Nc1nccc(Oc2ccc(-c3nnc(Nc4cccc(C(F)(F)F)c4)o3)cc2)n1 [Compound 27]	> 70%
FC(F)(F)c1cccc(Nc2nnc(-c3ccc(Oc4ccnc5ccccc45)cc3)o2)c1 [Compound 34]	> 70%
CSc1nc(N)cc(Oc2ccc(-c3nnc(Nc4ccc(F)c(C(F)(F)F)c4)[nH]3)cc2)n1 [Compound 105]	> 70%
CSc1nc(N)cc(Oc2c(C)cc(-c3nnc(Nc4cccc(C(F)(F)F)c4)[nH]3)cc2C)n1 [Compound 110]	> 70%
CSc1nc(N)cc(Oc2ccc(-c3nnc(Nc4cc(C)cc(C)c4)[nH]3)cc2)n1 [Compound 123]	< 50%
CNc1cc(Oc2ccc(-c3nnc(Nc4cccc(C(F)(F)F)c4)[nH]3)cc2)nc(SC)n1 [Compound 118]	> 70%
COc1ccc2c(Oc3ccc(-c4nnc(Nc5cccc(C(F)(F)F)c5)[nH]4)cc3)cc(C)nc2c1 [Compound 188]	> 70%
FC(F)(F)c1cccc(Nc2nnc(-c3ccc(Oc4ccnc(Cl)c4)cc3)[nH]2)c1 [Compound 6]	50 to 70%
